meta.source: ChEMBL document CHEMBL3351557

experiment: Intrinsic clearance in rat hepatocytes assessed per million cells; format: ADME, cell-based, Hepatocyte; details: read-out: CLH
assay_metric: hepatocyte CLint
Record the result as number plus unit.

compound | obs_value
CCC(CC)N1C(=O)[C@@](C)(CC(=O)O)C[C@H](c2cccc(Cl)c2)[C@H]1c1ccc(Cl)cc1 | 18.8 µL/min/1e6 cells
CC(C)N1C(=O)[C@@](C)(CC(=O)O)C[C@H](c2cccc(Cl)c2)[C@H]1c1ccc(Cl)cc1 | 8.5 µL/min/1e6 cells

Now for the compound whose hepatocyte CLint we want.
Consider the compound shown here: CC[C@@H](c1ccccn1)N1C(=O)[C@@](C)(CC(=O)O)CC(c2cccc(Cl)c2)[C@H]1c1ccc(Cl)cc1 (single isomer, unassigned) What is its recorded hepatocyte CLint?
13 µL/min/1e6 cells

----------
As shown below, each of these compounds has a reported clearance value.
assay: Clearance in mouse at 1 mg/kg, iv; assay type: ADME, organism-based; design: dose 1 mg/kg, route intravenous; settings: in vivo
Express your answer in mL/min/kg, writing the number without its unit.

molecular_string | clearance [mL/min/kg]
CCC(CC)N1C(=O)[C@@](C)(CC(=O)O)C[C@H](c2cccc(Cl)c2)[C@H]1c1ccc(Cl)cc1 | 16.5

Next item in the queue.
Value lookup for clearance; key = CC(C)N1C(=O)[C@@](C)(CC(=O)O)C[C@H](c2cccc(Cl)c2)[C@H]1c1ccc(Cl)cc1
17.2

----------
experiment: Intrinsic clearance in human hepatocytes assessed per million cells; type: ADME, cell-based, Hepatocyte; conditions: read-out: CLH
assay_metric: hepatocyte CLint

Need hepatocyte CLint of CC[C@@H](c1ccccn1)N1C(=O)[C@@](C)(CC(=O)O)CC(c2cccc(Cl)c2)[C@H]1c1ccc(Cl)cc1 (single isomer, unassigned) , thanks.
7 µL/min/1e6 cells

----------
Measured clearance, listed per entry.
assay: Clearance in rat at 0.5 mg/kg, iv; details: in vivo
Note: unit L/h/kg is implicit; provide only the numeric part.

State the recorded clearance for this entry: CC(C)N1C(=O)[C@@](C)(CC(=O)O)C[C@H](c2cccc(Cl)c2)[C@H]1c1ccc(Cl)cc1
1.04

Look up clearance for this compound: CCC(CC)N1C(=O)[C@@](C)(CC(=O)O)C[C@H](c2cccc(Cl)c2)[C@H]1c1ccc(Cl)cc1
0.45

----------
experiment: Half life in mouse; format: ADME, organism-based; conditions: in vivo
assay_metric: half-life (h)
Reply numerically in h, unit not repeated.

I would be grateful if you could share the reported half-life for CC[C@@H](c1ccccn1)N1C(=O)[C@@](C)(CC(=O)O)CC(c2cccc(Cl)c2)[C@H]1c1ccc(Cl)cc1 (single isomer, unassigned) .
1.9

----------
assay: Half life in rat at 0.5 mg/kg, iv; format: ADME, organism-based; set-up: dose 0.5 mg/kg, route intravenous; conditions: in vivo
assay_metric: half-life (h)
Form entry: value (h) — number only.

compound | obs_value
CCC[C@@H](c1ccccn1)N1C(=O)[C@@](C)(CC(=O)O)C[C@H](c2cccc(Cl)c2)[C@H]1c1ccc(Cl)cc1 | 6.9

Requested field: half-life. Item: CC[C@@H](c1ccccn1)N1C(=O)[C@@](C)(CC(=O)O)CC(c2cccc(Cl)c2)[C@H]1c1ccc(Cl)cc1 (single isomer, unassigned)
3.5

----------
test: Clearance in mouse; format: ADME, organism-based; conditions: in vivo
assay_metric: clearance (L/h/kg)
Write the answer as a number in L/h/kg, unit excluded.

Return reported clearance; argument: CC[C@@H](c1ccccn1)N1C(=O)[C@@](C)(CC(=O)O)CC(c2cccc(Cl)c2)[C@H]1c1ccc(Cl)cc1 (single isomer, unassigned)
3.1

----------
assay: Bioavailability in rat at 0.5 mg/kg, iv; type: ADME, organism-based; details: in vivo
assay_metric: bioavailability (%)
Output spec: scalar in %, unitless text.

I have this compound here, CC[C@@H](c1ccccn1)N1C(=O)[C@@](C)(CC(=O)O)CC(c2cccc(Cl)c2)[C@H]1c1ccc(Cl)cc1 (single isomer, unassigned) , and I need its recorded bioavailability.
79

----------
target: Tumour suppressor p53/oncoprotein Mdm2 (Homo sapiens, UniProt Q00987); test: Inhibition of human MDM2 (1-188 aa) -p53 (1-83 aa) interaction expressed in Escherichia coli after 18 hrs by HTRF assay in presence of 15% human serum
Sequence (P04637 whole entry, the tested form may be a part): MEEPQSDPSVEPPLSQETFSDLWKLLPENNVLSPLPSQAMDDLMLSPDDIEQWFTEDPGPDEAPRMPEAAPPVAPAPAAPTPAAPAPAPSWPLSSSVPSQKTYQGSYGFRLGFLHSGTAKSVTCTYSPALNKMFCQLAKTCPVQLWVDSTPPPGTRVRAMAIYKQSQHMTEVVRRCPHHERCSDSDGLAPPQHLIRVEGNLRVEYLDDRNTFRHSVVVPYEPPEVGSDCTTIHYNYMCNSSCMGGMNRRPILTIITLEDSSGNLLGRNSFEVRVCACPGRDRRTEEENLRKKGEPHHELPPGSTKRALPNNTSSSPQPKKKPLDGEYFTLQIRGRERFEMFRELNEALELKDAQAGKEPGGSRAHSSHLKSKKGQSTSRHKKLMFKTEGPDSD
Sequence (Q00987 whole entry, the tested form may be a part): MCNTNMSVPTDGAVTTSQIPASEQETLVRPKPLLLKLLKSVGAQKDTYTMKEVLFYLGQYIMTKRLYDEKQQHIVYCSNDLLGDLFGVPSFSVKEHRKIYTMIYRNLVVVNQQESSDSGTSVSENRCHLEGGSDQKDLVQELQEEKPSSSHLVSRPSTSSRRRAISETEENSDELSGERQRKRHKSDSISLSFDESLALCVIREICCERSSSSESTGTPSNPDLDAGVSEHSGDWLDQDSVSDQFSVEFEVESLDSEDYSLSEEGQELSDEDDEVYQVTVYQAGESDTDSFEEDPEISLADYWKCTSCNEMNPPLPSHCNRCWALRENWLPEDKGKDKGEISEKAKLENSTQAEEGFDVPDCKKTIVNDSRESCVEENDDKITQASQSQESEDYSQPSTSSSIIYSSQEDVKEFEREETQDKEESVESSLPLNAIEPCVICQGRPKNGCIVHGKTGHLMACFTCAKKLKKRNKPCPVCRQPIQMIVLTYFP
Each item that follows carries a reported pIC50.
Formally, pIC50 is defined as -log10 of the concentration c, with c in mol/L.

Solved entries:
compound | pIC50
C[C@@H](c1ccccn1)N1C(=O)[C@@](C)(CC(=O)O)C[C@H](c2cccc(Cl)c2)[C@H]1c1ccc(Cl)cc1 | 7.21
CC[C@@H](c1cnco1)N1C(=O)[C@@](C)(CC(=O)O)C[C@H](c2cccc(Cl)c2)[C@H]1c1ccc(Cl)cc1 | 7.44
C[C@]1(CC(=O)O)C[C@H](c2cccc(Cl)c2)[C@@H](c2ccc(Cl)cc2)N(c2ccccc2)C1=O | 7.26
CC[C@@H](c1ncccc1C)N1C(=O)[C@@](C)(CC(=O)O)C[C@H](c2cccc(Cl)c2)[C@H]1c1ccc(Cl)cc1 | 6.74
CC[C@@H](c1ccc(C)cn1)N1C(=O)[C@@](C)(CC(=O)O)CC(c2cccc(Cl)c2)[C@H]1c1ccc(Cl)cc1 (single isomer, unassigned) | 6.91
CC[C@@H](c1cc(C)ccn1)N1C(=O)[C@@](C)(CC(=O)O)C[C@H](c2cccc(Cl)c2)[C@H]1c1ccc(Cl)cc1 | 7.22

Turning to the following compound.
# get_value(readout='pIC50', item= C[C@]1(CC(=O)O)C[C@H](c2cccc(Cl)c2)[C@@H](c2ccc(Cl)cc2)N(c2ccccn2)C1=O )
6.91

----------
test: Oral bioavailability in mouse at 5 mg/kg; assay type: ADME, organism-based; details: in vivo
assay_metric: bioavailability (%)
Could you give me the number in %? Just the number is fine.

Look up bioavailability for this compound: CCC(CC)N1C(=O)[C@@](C)(CC(=O)O)C[C@H](c2cccc(Cl)c2)[C@H]1c1ccc(Cl)cc1
42

Form field: reported bioavailability of CC(C)N1C(=O)[C@@](C)(CC(=O)O)C[C@H](c2cccc(Cl)c2)[C@H]1c1ccc(Cl)cc1
32

----------
assay: Clearance in rat at 0.5 mg/kg, iv; type: ADME, organism-based; parameters: dose 0.5 mg/kg, route intravenous; details: in vivo
# Lookup of reported clearance keyed by entry
Kindly provide the numeric value in mL/min/kg only, without the unit symbol.

For the compound shown here, CCC[C@@H](c1ccccn1)N1C(=O)[C@@](C)(CC(=O)O)C[C@H](c2cccc(Cl)c2)[C@H]1c1ccc(Cl)cc1 , give the reported clearance.
3.33

I have this compound here, CCC(CC)N1C(=O)[C@@](C)(CC(=O)O)C[C@H](c2cccc(Cl)c2)[C@H]1c1ccc(Cl)cc1 , and I need its recorded clearance.
7.5

Recorded clearance of CC(C)N1C(=O)[C@@](C)(CC(=O)O)C[C@H](c2cccc(Cl)c2)[C@H]1c1ccc(Cl)cc1 , please.
17.3

// lookup clearance for C[C@]1(CC(=O)O)C[C@H](c2cccc(Cl)c2)[C@@H](c2ccc(Cl)cc2)N(c2ccccc2)C1=O
40.8

So what's the measured clearance for this one? CC[C@@H](c1cccc(C)n1)N1C(=O)[C@@](C)(CC(=O)O)C[C@H](c2cccc(Cl)c2)[C@H]1c1ccc(Cl)cc1
15.5

What does the record list as clearance for C[C@]1(CC(=O)O)C[C@H](c2cccc(Cl)c2)[C@@H](c2ccc(Cl)cc2)N(c2ccccn2)C1=O ?
36

Please look up its clearance: CC[C@@H](c1cccc(Cl)n1)N1C(=O)[C@@](C)(CC(=O)O)C[C@H](c2cccc(Cl)c2)[C@H]1c1ccc(Cl)cc1
20
